Cited source for all entries: the supplement of paper PMC10981050

# Tested on: MARIMO
# protocol-notes: cell viability relative to vehicle control; higher = less cytotoxic;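 note: after 48 h exposure read by CellTiter-Glo luminescence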
# run-conditions: 10 µM; SRSF2 genotype: SRSF2 P95H/wt
Structures can show the parent of a compound that is named as a salt.
Hi! Just check whether cell viability is below 80%. Below gives t, equal or above gives f.

Check if cell viability falls below 80% for N=C(N)Nc1ccc(C(=O)Oc2ccc3cc(C(=N)N)ccc3c2)cc1 [Nafamostat mesylate] .
t

Check if cell viability falls below 80% for COc1cc(-c2cc(-c3ccc(N4CCNCC4)cc3)cnc2C)cc(OC)c1OC .
t

Check if cell viability falls below 80% for C#C[C@]1(O)CC[C@H]2[C@@H]3CCC4=CC(=O)CC[C@@H]4[C@H]3CC[C@@]21C [Norethindrone (Norethisterone)] .
f

Check if cell viability falls below 80% for COc1cc2nccc(Oc3ccc(NC(=O)C4(C(=O)Nc5ccc(F)cc5)CC4)cc3)c2cc1OC .
t

Check if cell viability falls below 80% for CCCNCC(O)COc1ccccc1C(=O)CCc1ccccc1 (centres undefined) [Propafenone HCl] .
t

Check if cell viability falls below 80% for C=C(C)C1CCC2(C)CCC(=O)C(C)=C2C1 (centres undefined) .
f

Check if cell viability falls below 80% for CC1(C)CCC2(C(=O)O)CCC3=C(CCC4C3(C)CCC3C4(C)CC(O)C(O)C3(C)C(=O)O)C2C1 (centres undefined) [Polygalic acid] .
f

Check if cell viability falls below 80% for COc1cc(N2CCC(N3CCN(C)CC3)CC2)ccc1Nc1ncnc(Nc2ccccc2S(=O)(=O)C(C)C)n1 .
t

Check if cell viability falls below 80% for CCCOC(=O)c1ccc(O)cc1 [Propylparaben] .
f

====

For each entry below, report its cell viability value.
# System: MOLM14
# protocol-notes: cell viability relative to vehicle control; higher = less cytotoxic
# run-conditions: 10 µM; SRSF2 genotype: SRSF2 P95H/wt
Counter-ions that a name gives are not always drawn.
Give a bare numeral; the unit % is implied.

// cell viability lookup, key: Cc1c(C(=O)NN2CCCCC2)nn(-c2ccc(Cl)cc2Cl)c1-c1ccc(Cl)cc1
88.5

// cell viability lookup, key: Cc1nc(Nc2n[nH]c3c2CN(C(=O)N[C@H](CN(C)C)c2ccccc2)C3(C)C)c2sccc2n1
0.49

// cell viability lookup, key: CC12CCC(CC1=O)C2(C)C (stereo not drawn) [(+)-Camphor]
99.3

// cell viability lookup, key: CCOC(=O)c1csc(Nc2ccc(Cl)cc2)n1
111

// cell viability lookup, key: Nc1c(CC(=O)O)cccc1C(=O)c1ccccc1 [Amfenac Sodium (monohydrate)]
91.5

// cell viability lookup, key: C[C@@H](NCCCc1cccc(C(F)(F)F)c1)c1cccc2ccccc12 [AMG-073 HCl (Cinacalcet hydrochloride)]
27

// cell viability lookup, key: COc1cc(-c2coc3cc4c(c(OC)c3c2=O)OCO4)cc(OC)c1OC
96.8

// cell viability lookup, key: CN1C(C(=O)Nc2ccccn2)=C(O)c2sccc2S1(=O)=O
98.4

// cell viability lookup, key: CC1=C(C(=O)OCCN(Cc2ccccc2)c2ccccc2)C(c2cccc([N+](=O)[O-])c2)C(P2(=O)OCC(C)(C)CO2)=C(C)N1 (centres undefined)
82.2

====

# Tested on: MOLM14
# protocol-notes: cell viability relative to vehicle control; higher = less cytotoxic
# run-conditions: 10 µM; SRSF2 genotype: SRSF2 P95H/wt
measure-name: cell viability (%)
Give a bare numeral; the unit % is implied.

// cell viability lookup, key: COCCOc1cnc2ccn([C@H](C)c3nnc4c(F)cc(-c5cnn(C)c5)cn34)c(=O)c2c1
96.7

// cell viability lookup, key: CC(C)=CCC[C@](C)(O[C@@H]1O[C@H](CO[C@@H]2O[C@@H](CO)[C@H](O)[C@H]2O)[C@@H](O)[C@H](O)[C@H]1O)[C@H]1CC[C@]2(C)[C@@H]1[C@H](O)C[C@@H]1[C@@]3(C)CC[C@H](O[C@@H]4O[C@H](CO)[C@@H](O)[C@H](O)[C@H]4O[C@@H]4O[C@H](CO)[C@@H](O)[C@H](O)[C@H]4O)C(C)(C)[C@@H]3CC[C@]12C [Ginsenoside Rc]
110

// cell viability lookup, key: O=C[C@H](O)[C@H]1OC(=O)[C@@H](O)[C@H]1O
88.8

// cell viability lookup, key: O=c1cc(-c2ccc(O)c(O)c2)oc2c([C@@H]3O[C@H](CO)[C@@H](O)[C@H](O)[C@H]3O)c(O)cc(O)c12
103

// cell viability lookup, key: CN(C)c1ccc(C(=O)NCCCCCCC(=O)NO)cc1
1.22

// cell viability lookup, key: O=C(/C=C/c1cccc(S(=O)(=O)Nc2ccccc2)c1)NO
0.86

====

For each entry below, report its cell viability value.
# System: K562
# protocol-notes: cell viability relative to vehicle control; higher = less cytotoxic
# run-conditions: 10 µM; SRSF2 genotype: SRSF2 wt/wt
Counter-ions that a name gives are not always drawn.
Give a bare numeral; the unit % is implied.

// cell viability lookup, key: COc1cc(-c2oc3cc(O)cc(O)c3c(=O)c2O[C@@H]2O[C@H](CO[C@@H]3O[C@@H](C)[C@H](O)[C@@H](O)[C@H]3O)[C@@H](O)[C@H](O)[C@H]2O)ccc1O [Narcissoside]
106

// cell viability lookup, key: O=C(O)CCc1ccc(NCc2cccc(Oc3ccccc3)c2)cc1
111

// cell viability lookup, key: Cc1noc(NS(=O)(=O)c2ccc(N)cc2)c1C
107

// cell viability lookup, key: COC(=O)N[C@H](C(=O)N[C@@H](Cc1ccccc1)[C@@H](O)CN(Cc1ccc(-c2ccccn2)cc1)NC(=O)[C@@H](NC(=O)OC)C(C)(C)C)C(C)(C)C [Atazanavir sulfate]
102

// cell viability lookup, key: COc1c/c(=C2\C=c3ccccc3=N2)[nH]/c1=C\c1[nH]c(C)cc1C [Obatoclax mesylate (GX15-070)]
9.27

// cell viability lookup, key: CCCCCCCCCCCCCC(=S)NCCCC[C@H](NC(=O)OCc1ccccc1)C(=O)Nc1ccccc1
81.9

// cell viability lookup, key: CC1CCC2(C(=O)O)CCC3(C)C(=CCC4C5(C)CCC(OC6OCC(O)C(O)C6O)C(C)(C)C5CCC43C)C2C1(C)O (stereo not given) [Ziyuglycoside II]
101

// cell viability lookup, key: CC(=O)c1ccc2c(c1)c1cc(C(C)=O)ccc1n2CCNC(C)C
9.91

// cell viability lookup, key: O=C(CCN1CCN(C(=O)OCc2cc(Cl)cc(Cl)c2)CC1)c1ccc2[nH]c(=O)oc2c1
94.5

// cell viability lookup, key: CCCNS(=O)(=O)Nc1ncnc(OCCOc2ncc(Br)cn2)c1-c1ccc(Br)cc1
96.8

// cell viability lookup, key: COc1cc2nccc(Oc3ccc(NC(=O)Nc4cc(C)on4)c(Cl)c3)c2cc1OC
21.9

// cell viability lookup, key: C[C@H]1[C@H](C)CC[C@]2(C(=O)O)CC[C@]3(C)C(=CC[C@@H]4[C@@]5(C)CCC(=O)C(C)(C)[C@@H]5CC[C@]43C)[C@H]12
55.8

// cell viability lookup, key: N=C(N)NC(=N)N1CCOCC1 [Moroxydine HCl]
91.8

// cell viability lookup, key: O=c1cc(-c2ccccc2)oc2cc(O)c(O)c(O)c12
80.5

// cell viability lookup, key: Cc1onc(-c2ccccc2Cl)c1C(=O)N[C@@H]1C(=O)N2[C@@H]1SC(C)(C)[C@@H]2C(=O)O [Cloxacillin sodium]
97.6

====

For each entry below, report its cell viability value.
# Tested on: MARIMO
# protocol-notes: cell viability relative to vehicle control; higher = less cytotoxic
# run-conditions: 10 µM; SRSF2 genotype: SRSF2 P95H/wt
Structures can show the parent of a compound that is named as a salt.
Give a bare numeral; the unit % is implied.

// cell viability lookup, key: COc1cc2nccc(Oc3ccc(NC(=O)Nc4ccc(F)cc4F)c(F)c3)c2cc1OC
109

// cell viability lookup, key: Oc1ccc(-c2nc(-c3ccc(F)cc3)c(-c3ccncc3)[nH]2)cc1
101

// cell viability lookup, key: Nc1nc(F)nc2c1ncn2[C@@H]1O[C@H](COP(=O)(O)O)[C@@H](O)[C@@H]1O [Fludarabine Phosphate (Fludara)]
64.2

// cell viability lookup, key: CN(C)CCCN1c2ccccc2Sc2ccc(Cl)cc21 [Chlorpromazine HCl]
40.4

// cell viability lookup, key: O=C(CCNC(=O)c1ccc(OC(F)(F)F)cc1)N[C@@H]1CCCc2ccccc21
96

// cell viability lookup, key: Oc1ccc2c(c1)OC[C@H]1c3cc4c(cc3O[C@@H]21)OCO4 [Maackiain]
80

// cell viability lookup, key: CC(C)(C)[N+]([O-])=Cc1ccc(S(=O)(=O)O)cc1S(=O)(=O)O [NXY-059 (Disufenton sodium)]
109

// cell viability lookup, key: CCCc1nc(C)c2c(=O)[nH]c(-c3cc(S(=O)(=O)N4CCN(CC)CC4)ccc3OCC)nn12 [Vardenafil Hydrochloride Trihydrate (Vivanza]
110
